The values you see were collected from patent US11505533B2.

# ASSAY_SUMMARY: Caco-2 permeability
# Type: in vitro ADME
# CONDITION: human, direction not given

COMPOUND_STRING: O=C(Nc1nnc(-c2ccc(F)cc2)o1)N1CC=C(C(F)(F)F)CC1
Papp: 21.8 ×10⁻⁶ cm/s

COMPOUND_STRING: O=C(Nc1nnc(-c2ccc(F)cc2)o1)c1ccc(Oc2ccccc2)nc1
Papp: 12.7 ×10⁻⁶ cm/s

COMPOUND_STRING: O=C(Nc1nnc(-c2ccc(F)cc2)o1)c1ccc(Oc2cccc(O)c2)cc1
Papp: 13.7 ×10⁻⁶ cm/s

COMPOUND_STRING: O=C(Nc1nnc(C2CCCCC2)o1)N1CCC(Cl)=C(Cl)C1
Papp: 24.5 ×10⁻⁶ cm/s

COMPOUND_STRING: O=C(Nc1nnc(-c2ccc(F)cc2)o1)c1ccc(OC2CCCCC2)cc1
Papp: 1 ×10⁻⁶ cm/s

COMPOUND_STRING: CC1=CCN(C(=O)Nc2nnc(-c3ccc(F)cc3)o2)CC1
Papp: 67.3 ×10⁻⁶ cm/s

COMPOUND_STRING: O=C(Nc1nnc(-c2ccc(F)cc2)o1)N1CCc2ccccc2C1
Papp: 65.8 ×10⁻⁶ cm/s

COMPOUND_STRING: O=C(Nc1nnc(C2CCCCC2)o1)c1ccc(Oc2cccc(O)c2)cc1
Papp: 13.2 ×10⁻⁶ cm/s
